system: MRC-5SV2 cells; assay: Cytotoxicity against human cell lines (resazurin); details: human lung fibroblasts MRC-5
Structures can show the parent of a compound that is named as a salt.
reported.endpoint: toxicity against mammalian (MRC-5) cells (in words)

Please review the following examples before continuing.
molecule: CN1C(c2ccncc2)CC(=O)CC1c1ccncc1 (stereo not shown)
assay.target: MRC-5SV2 cells
result: much less cytotoxicity
//
molecule: O=C1C[C@H](c2ccncc2)S[C@@H](c2ccncc2)C1 (relative stereo)
assay.target: MRC-5SV2 cells
result: much less cytotoxicity
//
molecule: O=C(/C=C/c1ccc(C(F)(F)F)cc1)/C=C/c1ccc(C(F)(F)F)cc1
assay.target: MRC-5SV2 cells
result: without any toxicity
//
molecule: O=C(/C=C/c1cccnc1)/C=C/c1cccnc1 [NW321, Dihydrochloride]
assay.target: MRC-5SV2 cells
result: high cytotoxicity
//
molecule: O=C(/C=C/c1ccncc1)/C=C/c1ccncc1 [NW319, Dihydrochloride]
assay.target: MRC-5SV2 cells
result: high cytotoxicity

Reported toxicity against mammalian (MRC-5) cells (in words), molecule "O=C(/C=C/c1ccccn1)/C=C/c1ccccn1" : ____
high cytotoxicity

Fill blank: measured toxicity against mammalian (MRC-5) cells (in words) of the molecule "O=C(/C=C/c1ccc(OC(F)(F)F)cc1)/C=C/c1ccc(OC(F)(F)F)cc1" is ____.
without any toxicity

###

test system: Primary peritoneal mouse macrophages; experiment: Toxicity against mouse macrophages (host cells of the L. infantum assay); assay type: cell-based; conditions: mouse macrophages (L. inf)
reported.endpoint: toxicity against mouse macrophages (in words)

compound: O=C1C[C@H](c2ccncc2)S[C@@H](c2ccncc2)C1 (relative stereo)
assay.target: Primary peritoneal mouse macrophages
result: much less cytotoxicity

compound: O=C(/C=C/c1ccc(OC(F)(F)F)cc1)/C=C/c1ccc(OC(F)(F)F)cc1
assay.target: Primary peritoneal mouse macrophages
result: without any toxicity

compound: O=C(/C=C/c1ccc(C(F)(F)F)cc1)/C=C/c1ccc(C(F)(F)F)cc1
assay.target: Primary peritoneal mouse macrophages
result: without any toxicity

compound: CN1C(c2ccccc2)CC(=O)CC1c1ccccc1 (centres unmarked)
assay.target: Primary peritoneal mouse macrophages
result: without any toxicity

Query compound follows.
Recorded toxicity against mouse macrophages (in words) of CN1C(c2ccncc2)CC(=O)CC1c1ccncc1 (centres unmarked) , please.
much less cytotoxicity

###

tested on: Leishmania infantum MHOM/MA (BE)/67 strain; test: In vitro Leishmania infantum assay, intracellular amastigotes in primary peritoneal mouse macrophages; type: cell-based; settings: Leishmania infantum, Macrophage, 120 h; L. infantum amastigotes in mouse macrophages, 5 d incubation, reference drug; read-out: IC50 (50% inhibitory concentration), reduction in parasite burden
reported.endpoint: pIC50
Note: pIC50 values are expressed as the negative base-10 logarithm of concentration in M.

Find pIC50 (Leishmania infantum MHOM/MA (BE)/67 strain) for the entry "CCCCCCCCCCCCCCCCOP(=O)([O-])OCC[N+](C)(C)C"
5.28
